- Target Under Test: eukaryotic translation initiation factor 4E (eIF4E) (UniProt P06730 1-217)
- Sequence (P06730 whole entry): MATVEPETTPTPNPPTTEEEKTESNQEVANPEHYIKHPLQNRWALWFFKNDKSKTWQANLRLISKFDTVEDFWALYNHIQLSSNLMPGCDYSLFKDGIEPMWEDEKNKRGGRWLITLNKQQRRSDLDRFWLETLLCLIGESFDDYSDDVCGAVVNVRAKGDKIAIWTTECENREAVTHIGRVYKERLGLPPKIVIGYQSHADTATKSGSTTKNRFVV
- Test Method Notes: ITC
Reported Metric: log10 Kd (log10 of the value in nM)
All values: base-10 log of Kd in nM.

G39V/G48V Five-phospho 4E-BP2 (protein, phospho-Thr37, phospho-Thr46, phospho-Ser65, phospho-Thr70, phospho-Ser83 (legend prints pT36, taken as a typo for pT37)) MSSSAGSGHQPSQSRAIPTRTVAISDAAQLPHDYCTTPVGTLFSTTPVGTRIIYDRKFLLDRRNSPMAQTPPCHLPNIPGVTSPGTLIEDSKVEVNNLNNLNNHDRKHAVGDDAQFEMDI	1.56
Non-phospho 4E-BP2 (protein) MSSSAGSGHQPSQSRAIPTRTVAISDAAQLPHDYCTTPGGTLFSTTPGGTRIIYDRKFLLDRRNSPMAQTPPCHLPNIPGVTSPGTLIEDSKVEVNNLNNLNNHDRKHAVGDDAQFEMDI	0.51
pT37 4E-BP2 (protein, phospho-Thr37) MSSSAGSGHQPSQSRAIPTRTVAISDAAQLPHDYCTTPGGTLFSTAPGGTRIIYDRKFLLDRRNAPMAQAPPCHLPNIPGVTAPGTLIEDSKVEVNNLNNLNNHDRKHAVGDDAQFEMDI	0.86
pT37 pT46 (Two-phospho) 4E-BP2 (protein, phospho-Thr37, phospho-Thr46) MSSSAGSGHQPSQSRAIPTRTVAISDAAQLPHDYCTTPGGTLFSTTPGGTRIIYDRKFLLDRRNAPMAQAPPCHLPNIPGVTAPGTLIEDSKVEVNNLNNLNNHDRKHAVGDDAQFEMDI	2.43
pT46 4E-BP2 (protein, phospho-Thr46) MSSSAGSGHQPSQSRAIPTRTVAISDAAQLPHDYCTAPGGTLFSTTPGGTRIIYDRKFLLDRRNAPMAQAPPCHLPNIPGVTAPGTLIEDSKVEVNNLNNLNNHDRKHAVGDDAQFEMDI	0.38

Then this binder:
Prompt: State the recorded log10 Kd for this entry: pS65 pT70 pS83 (T37A/T46A) 4E-BP2 (protein, phospho-Ser65, phospho-Thr70, phospho-Ser83) MSSSAGSGHQPSQSRAIPTRTVAISDAAQLPHDYCTAPGGTLFSTAPGGTRIIYDRKFLLDRRNSPMAQTPPCHLPNIPGVTSPGTLIEDSKVEVNNLNNLNNHDRKHAVGDDAQFEMDI
Response: 1.05

Ref: paper PMC7305185
